The origin of these recorded values is paper PMC9495235.

- Tested on: Staphylococcus aureus ATCC 25923
- Experiment summary: Antibacterial activity (CMI)
- Assay type: cell-based
- Test settings: Gram +
CMI: recorded values
Assay endpoint: CMI (µg/mL)

Molecule: CCCCCCCC/C=C/CCCCCCCc1nc(C[C@H](O[C@@H]2O[C@H](CN)[C@@H](O)[C@H]2O)[C@H]2O[C@@H](n3ccc(=O)[nH]c3=O)[C@H](O)[C@@H]2O)no1.O=C(O)C(F)(F)F [Compound 12f]
Assay endpoint: CMI
Units text: µg/mL
Result modifier: =
Measured value: 50

Molecule: CCN1CCN(C(=O)N[C@@H](C(=O)N[C@@H]2C(=O)N3[C@@H]2SC(C)(C)[C@@H]3C(=O)O)c2ccccc2)C(=O)C1=O [Piperacillin, reference compound]
Assay endpoint: CMI
Units text: µg/mL
Result modifier: =
Measured value: 4

Molecule: NC[C@H]1O[C@@H](O[C@@H](Cc2noc(CCCCCCCCCc3ccccc3)n2)[C@H]2O[C@@H](n3ccc(=O)[nH]c3=O)[C@H](O)[C@@H]2O)[C@H](O)[C@@H]1O.O=C(O)C(F)(F)F [Compound 12g]
Assay endpoint: CMI
Units text: µg/mL
Result modifier: >
Measured value: 50

Molecule: CCCCCCCCCCCCCCCCCCc1nc(C[C@H](O[C@@H]2O[C@H](CN)[C@@H](O)[C@H]2O)[C@H]2O[C@@H](n3ccc(=O)[nH]c3=O)[C@H](O)[C@@H]2O)no1.O=C(O)C(F)(F)F [Compound 12c]
Assay endpoint: CMI
Units text: µg/mL
Result modifier: =
Measured value: 50

Molecule: CCCCCCCCCCc1nc(C[C@H](O[C@@H]2O[C@H](CN)[C@@H](O)[C@H]2O)[C@H]2O[C@@H](n3ccc(=O)[nH]c3=O)[C@H](O)[C@@H]2O)no1.O=C(O)C(F)(F)F [Compound 12a]
Assay endpoint: CMI
Units text: µg/mL
Result modifier: >
Measured value: 50

Molecule: CCCCCCCCCCC(CCCCCCCCCC)c1nc(C[C@H](O[C@@H]2O[C@H](CN)[C@@H](O)[C@H]2O)[C@H]2O[C@@H](n3ccc(=O)[nH]c3=O)[C@H](O)[C@@H]2O)no1.O=C(O)C(F)(F)F [Compound 12i]
Assay endpoint: CMI
Units text: µg/mL
Result modifier: >
Measured value: 50
